Each recorded value in this set is attributed to the Human Domainome abundance scans (Beltran et al. 2025).

Parameter abundance fitness: see the listing below.
B1: Chromodomain-helicase-DNA-binding protein 4, residues 365 to 417; numbered along this chain, Q14839 (parent)
chain: YETDHQDYCEVCQQGGEIILCDTCPRAYHMVCLDPDMEKAPEGKWSCPHCEKE

variants of: B1; experiment: abundance fitness (aPCA) (normalised: wild type 0, dead -1); higher = more abundant; growth selection in yeast, the domain comes from the species named; conditions: Homo sapiens
I only need the number, thanks.

Answered examples (5):
C32A : -0.737
D34W : 0.009
D7R : -0.005
P41L : -0.092
Y8I : -0.099

Exam item: Recorded abundance fitness for Q6L , please?
Marked response: -0.239

Exam item: // query: C50F
Marked response: -0.567
